system: Escherichia coli TOP10; assay: shrunken log2 fold change of peptide-encoding DNA abundance (4.5 h post-induction vs induction); higher = less antimicrobial activity (less host growth inhibition); details: time post-induction: 4.5 h; library: site-saturation at positions 5, 18, 19, 20
Readout Kind: shrunken log2 fold change

> print(dat)
          monomer.sequence               readout.kind  assay.result
1  RRIRARPPRLPRPRPRPMTLPRP  shrunken log2 fold change         0.151
2  RRIRLRPPRLPRPRPRPQCKPRP  shrunken log2 fold change        -0.425
3  RRIRGRPPRLPRPRPRPNKDPRP  shrunken log2 fold change         0.179
4  RRIRQRPPRLPRPRPRPTGKPRP  shrunken log2 fold change      -0.00964

###

test system: Escherichia coli TOP10; assay: shrunken log2 fold change of peptide-encoding DNA abundance (4.5 h post-induction vs induction); higher = less antimicrobial activity (less host growth inhibition); settings: time post-induction: 4.5 h; library: site-saturation at positions 5, 18, 19, 20
Readout Kind: shrunken log2 fold change

> print(dat)
          monomer.sequence               readout.kind  assay.result
1  RRIRWRPPRLPRPRPRPCMWPRP  shrunken log2 fold change       -0.0796
2  RRIRSRPPRLPRPRPRPSFGPRP  shrunken log2 fold change         0.176
3  RRIRYRPPRLPRPRPRPGTLPRP  shrunken log2 fold change        -0.803
4  RRIRCRPPRLPRPRPRPFSEPRP  shrunken log2 fold change        -0.929
5  RRIRPRPPRLPRPRPRPNMYPRP  shrunken log2 fold change        -0.746
6  RRIRLRPPRLPRPRPRPRTDPRP  shrunken log2 fold change       -0.0417
7  RRIRVRPPRLPRPRPRPKQPPRP  shrunken log2 fold change          0.11
8  RRIRERPPRLPRPRPRPRRPPRP  shrunken log2 fold change          0.27
9  RRIRKRPPRLPRPRPRPDRKPRP  shrunken log2 fold change         0.413

###

Each entry below carries its recorded shrunken log2 fold change.
system: Escherichia coli TOP10; assay: shrunken log2 fold change of peptide-encoding DNA abundance (4.5 h post-induction vs induction); higher = less antimicrobial activity (less host growth inhibition); details: time post-induction: 4.5 h; library: site-saturation at positions 5, 18, 19, 20
Readout Kind: shrunken log2 fold change

> print(dat)
           monomer.sequence               readout.kind  assay.result
 1  RRIRLRPPRLPRPRPRPFGEPRP  shrunken log2 fold change         0.084
 2  RRIRCRPPRLPRPRPRPDCTPRP  shrunken log2 fold change        -0.232
 3  RRIRWRPPRLPRPRPRPTVAPRP  shrunken log2 fold change         0.662
 4  RRIRARPPRLPRPRPRPARPPRP  shrunken log2 fold change         0.827
 5  RRIRARPPRLPRPRPRPRYVPRP  shrunken log2 fold change         -0.25
 6  RRIRIRPPRLPRPRPRPGCPPRP  shrunken log2 fold change        -0.304
 7  RRIRVRPPRLPRPRPRPYTCPRP  shrunken log2 fold change        -0.164
 8  RRIRGRPPRLPRPRPRPYTTPRP  shrunken log2 fold change        -0.083
 9  RRIRIRPPRLPRPRPRPYVKPRP  shrunken log2 fold change        -0.881
10  RRIRLRPPRLPRPRPRPITAPRP  shrunken log2 fold change       -0.0526
11  RRIRRRPPRLPRPRPRPMNDPRP  shrunken log2 fold change         0.338
12  RRIRKRPPRLPRPRPRPVFNPRP  shrunken log2 fold change         0.117
13  RRIRQRPPRLPRPRPRPTHLPRP  shrunken log2 fold change         0.205
14  RRIRCRPPRLPRPRPRPNFIPRP  shrunken log2 fold change        -0.616
15  RRIRNRPPRLPRPRPRPDFMPRP  shrunken log2 fold change        -0.138
16  RRIRMRPPRLPRPRPRPDPLPRP  shrunken log2 fold change         0.255
17  RRIRQRPPRLPRPRPRPPQHPRP  shrunken log2 fold change         0.718
18  RRIRQRPPRLPRPRPRPVCVPRP  shrunken log2 fold change          0.18
19  RRIRMRPPRLPRPRPRPLIWPRP  shrunken log2 fold change         0.246
20  RRIRIRPPRLPRPRPRPMRMPRP  shrunken log2 fold change        0.0697
21  RRIRGRPPRLPRPRPRPPPIPRP  shrunken log2 fold change          1.16
22  RRIRARPPRLPRPRPRPLTPPRP  shrunken log2 fold change         0.548
23  RRIRHRPPRLPRPRPRPFPMPRP  shrunken log2 fold change        -0.651
24  RRIRCRPPRLPRPRPRPWDIPRP  shrunken log2 fold change        -0.179
25  RRIRNRPPRLPRPRPRPSHCPRP  shrunken log2 fold change        -0.801
26  RRIRFRPPRLPRPRPRPCTNPRP  shrunken log2 fold change        -0.598
27  RRIRMRPPRLPRPRPRPTWEPRP  shrunken log2 fold change         0.312

###

system: Escherichia coli TOP10; test: shrunken log2 fold change of peptide-encoding DNA abundance (4.5 h post-induction vs induction); higher = less antimicrobial activity (less host growth inhibition); settings: time post-induction: 4.5 h; library: site-saturation at positions 5, 18, 19, 20
Criterion: shrunken log2 fold change meeting or surpassing 0.06. Met: condition met. Not met: condition not met.

> print(dat)
          monomer.sequence     discrete.label
1  RRIRIRPPRLPRPRPRPKAKPRP      condition met
2  RRIRIRPPRLPRPRPRPMIDPRP  condition not met
3  RRIRWRPPRLPRPRPRPWVAPRP      condition met
4  RRIRWRPPRLPRPRPRPTVEPRP  condition not met
5  RRIRRRPPRLPRPRPRPHLYPRP      condition met
6  RRIRYRPPRLPRPRPRPDTVPRP  condition not met
7  RRIRTRPPRLPRPRPRPDSMPRP      condition met

###

tested on: Escherichia coli TOP10; test: shrunken log2 fold change of peptide-encoding DNA abundance (4.5 h post-induction vs induction); higher = less antimicrobial activity (less host growth inhibition); settings: time post-induction: 4.5 h; library: site-saturation at positions 5, 18, 19, 20
Dear colleague, classification is by shrunken log2 fold change, with ranges listed here: bottom = under -0.1, middle = from -0.1 up to 0.02, top = 0.02 and over

> print(dat)
           monomer.sequence  discrete.label
 1  RRIRGRPPRLPRPRPRPCNVPRP          middle
 2  RRIRLRPPRLPRPRPRPTVNPRP          bottom
 3  RRIRQRPPRLPRPRPRPKWYPRP          bottom
 4  RRIRCRPPRLPRPRPRPAWEPRP             top
 5  RRIRFRPPRLPRPRPRPHVFPRP          bottom
 6  RRIRGRPPRLPRPRPRPSLHPRP             top
 7  RRIRYRPPRLPRPRPRPADLPRP          middle
 8  RRIRKRPPRLPRPRPRPCAWPRP             top
 9  RRIRTRPPRLPRPRPRPKNDPRP          bottom
10  RRIRTRPPRLPRPRPRPPQEPRP             top

###

system: Escherichia coli TOP10; test: shrunken log2 fold change of peptide-encoding DNA abundance (4.5 h post-induction vs induction); higher = less antimicrobial activity (less host growth inhibition); details: time post-induction: 4.5 h; library: site-saturation at positions 5, 18, 19, 20;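 note: peptides expressed intracellularly from a pBAD plasmid library in pooled LB shake-flask culture, induced with 0.3% L-arabinose, DNA abundance read by NGS, three biological replicates, DESeq2 with apeglm shrinkage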
// values below are reported shrunken log2 fold change
Readout Kind: shrunken log2 fold change

> print(dat)
           monomer.sequence         subject.of.test  assay.result
 1  RRIRFRPPRLPRPRPRPDCWPRP  Escherichia coli TOP10       -0.0344
 2  RRIRLRPPRLPRPRPRPWHLPRP  Escherichia coli TOP10         -0.28
 3  RRIRLRPPRLPRPRPRPNAEPRP  Escherichia coli TOP10         0.143
 4  RRIRSRPPRLPRPRPRPIWGPRP  Escherichia coli TOP10        0.0936
 5  RRIRRRPPRLPRPRPRPDQVPRP  Escherichia coli TOP10        0.0594
 6  RRIRVRPPRLPRPRPRPCFHPRP  Escherichia coli TOP10        -0.395
 7  RRIRVRPPRLPRPRPRPANVPRP  Escherichia coli TOP10        -0.597
 8  RRIRIRPPRLPRPRPRPTMLPRP  Escherichia coli TOP10        -0.487
 9  RRIRARPPRLPRPRPRPRVQPRP  Escherichia coli TOP10         0.359
10  RRIRCRPPRLPRPRPRPSEVPRP  Escherichia coli TOP10        -0.328
11  RRIRRRPPRLPRPRPRPSIIPRP  Escherichia coli TOP10        -0.332
12  RRIRFRPPRLPRPRPRPWVDPRP  Escherichia coli TOP10        -0.608
13  RRIRSRPPRLPRPRPRPNPNPRP  Escherichia coli TOP10        -0.283
14  RRIRQRPPRLPRPRPRPARQPRP  Escherichia coli TOP10         0.182
15  RRIRPRPPRLPRPRPRPSSCPRP  Escherichia coli TOP10        0.0133

Attribution: the supplement of paper PMC9112550
